Biological target: human Fes SH2-kinase unit (residues I448 to the C terminus), unphosphorylated (human, UniProt P07332-1 448-822)
Sequence (P07332 448-822): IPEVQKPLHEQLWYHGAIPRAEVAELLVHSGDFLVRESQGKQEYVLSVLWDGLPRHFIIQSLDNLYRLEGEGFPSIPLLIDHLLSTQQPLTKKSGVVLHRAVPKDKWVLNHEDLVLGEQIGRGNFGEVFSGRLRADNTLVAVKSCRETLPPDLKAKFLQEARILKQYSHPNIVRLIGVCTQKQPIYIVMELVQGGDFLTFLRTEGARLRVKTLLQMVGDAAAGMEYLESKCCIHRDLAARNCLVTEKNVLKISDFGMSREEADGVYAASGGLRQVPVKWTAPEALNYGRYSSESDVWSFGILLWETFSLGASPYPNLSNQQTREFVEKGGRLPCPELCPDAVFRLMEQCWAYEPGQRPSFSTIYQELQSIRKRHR
Assay: FP; 1 mM ATP and 5 mM MgCl2
Non-standard residues stand in square brackets, D forms with d. No end group written: not given here. pY = N[C@@H](Cc1ccc(OP(=O)(O)O)cc1)C(=O)O
measure_name: Kd

Kd lookup needed for V[pY]EPVSY [pTyr-containing peptide from ezrin (VpYEPVSY)] , thanks.
~400 nM
